test_system: human Phosphodiesterase 4A1 (PDE4A1), PDE4A (gene 5141)
procedure_details: NVS_ENZ_hPDE4A1: NovaScreen (NVS) Enzymatic Assay for human Phosphodiesterase 4A1 (PDE4A1) (AID 2283191)
Results filed as inconclusive are left out. Calls of active or inactive are those of the source. How the source made its calls: active means hit-call score of the fitted dose curve at least 0.9, where 1 is the maximum; inconclusive means response in the unintended direction; inactive means score below 0.9.
Outcome codes: active, inactive

molecule: Oc1ccc(Cl)cc1Cc1ccccc1
group_label: inactive
--
molecule: CCCN(CCOc1c(Cl)cc(Cl)cc1Cl)C(=O)n1ccnc1
group_label: active
--
molecule: CCOc1nc(NC)nc(NC(=O)NS(=O)(=O)c2ccccc2C(=O)OC)n1
group_label: active
--
molecule: COP(=S)(OC)Oc1ccc([N+](=O)[O-])cc1
group_label: inactive
--
molecule: COC(=O)c1ccccc1S(=O)(=O)NC(=O)N(C)c1nc(C)nc(OC)n1
group_label: active
--
molecule: CC(C)(C)C(O)C(Oc1ccc(Cl)cc1)n1cncn1 (stereo unspecified)
group_label: inactive

Hello, the source for this data is PubChem BioAssay (EPA / NIEHS), in case you need it.
